All values here come from patent US20260152503A1.

# Tested on: AN3CA
# Assay Procedure: 2D cell proliferation assay, AN3CA
# Format: cell-based
# Assay Context: Homo sapiens, AN3-CA, 96 hours, CTG, read-out: Cell Line, IC50 AN3CA
# IC50 annotations

As a guide, the following entries are already answered.
C=CC(=O)N1CCC2(CC=C(c3c(-c4ccc(OC5CCCC5)nc4)c4c(N)ncnc4n3C)CC2)CC1 :: 10 to 30 nM
C=CC(=O)N1CCC2(CC=C(c3c(-c4ccc(OC)nc4)c4c(N)ncnc4n3C)CC2)CC1C (centres unmarked) :: 10 to 30 nM
C=CC(=O)N1CCC2(CC=C(c3c(-c4ncccn4)c4c(N)ncnc4n3C)CC2)CC1 :: 10 to 30 nM
C=CC(=O)N1CCC2(CC=C(c3c(-c4cnc(OC5CC5)c(F)c4)c4c(N)ncnc4n3C)CC2)CC1 :: 10 to 30 nM
C=CC(=O)N1CCC2(CC=C(c3c(-c4cccc(OC)c4)c4c(N)ncnc4n3C)CC2)CC1 :: 30 to 100 nM

Which IC50 value is on record for C=CC(=O)N1CCC2(CC=C(c3c(C#N)c4c(N)ncnc4n3C)CC2)CC1 ? 1 to 10 nM

Which IC50 value is on record for C=CC(=O)N1CCC2(CC=C(c3c(-c4cnccn4)c4c(N)ncnc4n3C)CC2)CC1 ? 30 to 100 nM

Which IC50 value is on record for C=CC(=O)N1CCC2(CC=C(c3[nH]c4ncnc(N)c4c3-c3ncccn3)CC2)CC1 ? 1 to 10 nM

----------
# Assayed System: FGFR2 (Homo sapiens, UniProt P21802, K310R/N549K)
# Construct: in FGFR aberrations of AN3CA (FGFR2/k310R, N549K)
# Sequence (P21802 22-821 K310R/N549K): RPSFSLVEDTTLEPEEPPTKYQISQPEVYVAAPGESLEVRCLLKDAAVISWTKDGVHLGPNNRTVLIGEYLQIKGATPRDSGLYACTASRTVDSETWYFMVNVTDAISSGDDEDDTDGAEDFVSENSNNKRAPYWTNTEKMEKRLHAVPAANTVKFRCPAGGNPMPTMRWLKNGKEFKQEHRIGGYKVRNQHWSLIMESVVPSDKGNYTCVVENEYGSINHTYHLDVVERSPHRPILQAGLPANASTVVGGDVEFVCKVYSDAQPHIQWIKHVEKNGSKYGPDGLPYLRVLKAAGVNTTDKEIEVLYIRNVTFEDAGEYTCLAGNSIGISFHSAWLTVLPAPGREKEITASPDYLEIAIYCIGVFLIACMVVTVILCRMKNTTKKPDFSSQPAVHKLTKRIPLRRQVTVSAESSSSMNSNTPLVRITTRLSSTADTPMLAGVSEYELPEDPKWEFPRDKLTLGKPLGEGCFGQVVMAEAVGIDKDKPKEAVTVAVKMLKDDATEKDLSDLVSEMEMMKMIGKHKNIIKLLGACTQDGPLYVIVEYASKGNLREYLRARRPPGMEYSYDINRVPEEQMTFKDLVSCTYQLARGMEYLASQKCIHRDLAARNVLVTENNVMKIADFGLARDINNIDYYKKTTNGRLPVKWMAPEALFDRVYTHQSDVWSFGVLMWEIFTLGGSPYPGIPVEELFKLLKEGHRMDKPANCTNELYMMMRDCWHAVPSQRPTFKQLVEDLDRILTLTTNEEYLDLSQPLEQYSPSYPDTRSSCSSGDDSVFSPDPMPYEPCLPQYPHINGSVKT
# Assay Procedure: pERK potency assay (In Cell ELISA), AN3CA cells
# Assay Context: pERK, AN3CA (FGFR2/k310R, N549K) cells, 3 hours
pIC50: −log10 of the molar value.
# pIC50 annotations

C=CC(=O)N1CCC2(CC=C(c3c(-c4ccc(OC5CC5)cc4)c4c(N)ncnc4n3C)CC2)CC1 [Example 18] :: ≥ 9.00
C=CC(=O)N1CCC2(CC=C(c3c(-c4ncc(F)cn4)c4c(N)ncnc4n3C)CC2)CC1 [Example 44] :: 8.00 to 9.00
C=CC(=O)N1CCC2(CC=C(c3c(-c4cccnn4)c4c(N)ncnc4n3C)CC2)CC1 [Example 61] :: 7.52 to 8.00

Which pIC50 value is on record for C=CC(=O)N1CCC2(CC=C(c3c(-c4cccc(F)c4)c4c(N)ncnc4n3C)CC2)CC1 [Example 10] ? 8.00 to 9.00

----------
# Assayed System: Ba/F3 FGFR2-N549K (Homo sapiens, UniProt P21802, N549K, cells depend on it)
# Construct: fused on or other part: Q9H694 (Protein bicaudal C homolog 1)
# Sequence (P21802 whole entry N549K, the tested form may be a part): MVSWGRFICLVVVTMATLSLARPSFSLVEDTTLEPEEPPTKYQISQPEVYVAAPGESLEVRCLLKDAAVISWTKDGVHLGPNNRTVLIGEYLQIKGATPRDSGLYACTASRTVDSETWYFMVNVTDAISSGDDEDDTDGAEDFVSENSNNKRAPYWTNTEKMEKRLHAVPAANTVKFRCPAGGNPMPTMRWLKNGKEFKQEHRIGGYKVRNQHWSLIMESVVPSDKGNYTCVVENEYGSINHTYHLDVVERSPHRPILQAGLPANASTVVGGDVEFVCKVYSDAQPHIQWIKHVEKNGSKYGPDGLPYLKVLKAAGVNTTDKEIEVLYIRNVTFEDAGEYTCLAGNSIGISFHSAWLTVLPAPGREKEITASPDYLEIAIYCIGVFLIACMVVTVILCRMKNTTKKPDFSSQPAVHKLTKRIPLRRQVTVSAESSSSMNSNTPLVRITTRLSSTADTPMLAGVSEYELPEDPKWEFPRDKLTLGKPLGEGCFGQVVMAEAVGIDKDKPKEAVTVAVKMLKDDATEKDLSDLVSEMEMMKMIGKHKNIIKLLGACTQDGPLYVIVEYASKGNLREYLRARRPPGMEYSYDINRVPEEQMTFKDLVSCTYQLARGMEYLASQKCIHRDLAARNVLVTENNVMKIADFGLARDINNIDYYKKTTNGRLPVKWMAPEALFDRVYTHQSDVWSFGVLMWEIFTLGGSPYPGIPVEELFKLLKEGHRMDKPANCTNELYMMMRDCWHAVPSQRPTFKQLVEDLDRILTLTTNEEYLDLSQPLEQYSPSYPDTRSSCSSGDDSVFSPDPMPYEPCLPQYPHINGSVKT
# Assay Procedure: 2D cell proliferation assay, Ba/F3 FGFR2-N549K
# Type: cell-based, mouse
# Assay Context: 96 hours, CTG, read-out: Cell Line, IC50 Ba/F3 FGFR2-N549K
# Experimental: Low IC50 values are indicative of the high potency of the FGFR inhibitor compounds in this assay selling. […] Cells growing in the log phase are detached with Gibco™ TrypLE™ Express Enzyme and plated in 96 well plate at 3000 to 5000 cells/well in 100 μl of media. […] The luminescence signals are determined with a Biotek™ plate reader. Data is fitted using a sigmoidal curve analysis program (GraphPad Prism®) with variable hill slope and IC50 is determined.
Property Label: GI50

As a guide, the following entries are already answered.
C=CC(=O)N1CCC2(CC=C(c3c(-c4ncc(OC5CC5)cn4)c4c(N)ncnc4n3C)CC2)CC1 :: 1 to 10 nM
C=CC(=O)N1CCC2(CC=C(c3[nH]c4ncnc(N)c4c3-c3ncccn3)CC2)CC1 :: 10 to 30 nM
C=CC(=O)N1CCC2(CC=C(c3c(-c4cnc(OC)c(F)c4)c4c(N)ncnc4n3C)CC2)CC1 :: 1 to 10 nM
C=CC(=O)N1CCC2(CC=C(c3c(-c4ncc(C5CC5)cn4)c4c(N)ncnc4n3C)CC2)CC1 :: 1 to 10 nM
C=CC(=O)N1CCC2(CC=C(c3c(-c4cnccn4)c4c(N)ncnc4n3C)CC2)CC1 :: 1 to 10 nM

Which GI50 value is on record for C=CC(=O)N1CCC2(CC=C(c3c(-c4ccc(Oc5nccc(C)n5)c(F)c4)c4c(N)ncnc4n3C)CC2)CC1 ? 10 to 30 nM

----------
# Assayed System: FGFR2 (Homo sapiens, UniProt P21802, K310R/N549K)
# Construct: in FGFR aberrations of AN3CA (FGFR2/k310R, N549K)
# Assay Procedure: pERK potency assay (In Cell ELISA), AN3CA cells
# Assay Context: pERK, AN3CA (FGFR2/k310R, N549K) cells, 3 hours
# IC50 annotations

C=CC(=O)N1CCC2(CC=C(c3c(-c4ccc(F)cc4)c4c(N)ncnc4n3C)CC2)CC1 [Example 11] :: 1 to 10 nM

Which IC50 value is on record for C=CC(=O)N1CCC2(CC=C(c3c(-c4ccc(OC(F)F)cc4)c4c(N)ncnc4n3C)CC2)CC1 [Example 17] ? ≤ 1 nM

Which IC50 value is on record for C=CC(=O)N1CCC2(CC=C(c3c(-c4ccc(OC5CC(C)C5)nc4)c4c(N)ncnc4n3C)CC2)CC1 (stereo not drawn) [Example 25] ? 1 to 10 nM

Which IC50 value is on record for C=CC(=O)N1CC2(CC=C(c3c(-c4ccc(Oc5ncccn5)cc4)c4c(N)ncnc4n3C)CC2)C1 [Example 1] ? 1 to 10 nM

Which IC50 value is on record for C=CC(=O)N1CCC2(CC=C(c3c(C(C)C)c4c(N)ncnc4n3C)CC2)CC1 [Example 15] ? 10 to 30 nM

----------
# Assayed System: FGFR1 (Homo sapiens, UniProt P11362)
# Construct: DMS114 (FGFR1 amplification)
# Sequence (P11362 22-822): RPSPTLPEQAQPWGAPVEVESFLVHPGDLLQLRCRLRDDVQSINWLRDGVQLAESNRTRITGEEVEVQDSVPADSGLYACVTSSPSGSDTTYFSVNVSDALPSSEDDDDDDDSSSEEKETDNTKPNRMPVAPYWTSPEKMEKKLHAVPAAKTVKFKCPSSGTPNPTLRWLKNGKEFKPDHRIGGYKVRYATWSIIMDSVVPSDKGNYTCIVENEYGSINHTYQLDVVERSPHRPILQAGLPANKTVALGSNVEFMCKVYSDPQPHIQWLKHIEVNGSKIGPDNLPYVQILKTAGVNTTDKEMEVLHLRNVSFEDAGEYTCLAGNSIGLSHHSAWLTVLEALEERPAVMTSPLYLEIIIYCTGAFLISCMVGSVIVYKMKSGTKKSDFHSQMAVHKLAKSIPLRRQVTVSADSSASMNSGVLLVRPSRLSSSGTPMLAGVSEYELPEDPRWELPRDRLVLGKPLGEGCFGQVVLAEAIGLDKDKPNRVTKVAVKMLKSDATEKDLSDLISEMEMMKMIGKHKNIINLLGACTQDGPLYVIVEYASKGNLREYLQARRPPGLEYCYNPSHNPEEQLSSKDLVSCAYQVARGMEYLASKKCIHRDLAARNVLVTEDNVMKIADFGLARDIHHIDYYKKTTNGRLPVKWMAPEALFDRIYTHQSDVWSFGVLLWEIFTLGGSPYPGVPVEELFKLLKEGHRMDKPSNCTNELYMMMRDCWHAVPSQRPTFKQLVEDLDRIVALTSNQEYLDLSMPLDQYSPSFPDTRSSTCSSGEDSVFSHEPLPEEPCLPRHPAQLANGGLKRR
# Assay Procedure: pERK potency assay (In Cell ELISA), DMS114 cells
# Assay Context: DMS114 (FGFR1 amplification) cells, 3 hours
Property Label: IC50

C=CC(=O)N1CCC2(CC=C(c3c(C4COC4)c4c(N)ncnc4n3C)CC2)CC1 [Example 55] :: 10 to 30 nM
C=CC(=O)N1CCC2(CC=C(c3c(-c4ncc(OC)cn4)c4c(N)ncnc4n3C)CC2)CC1 [Example 43] :: > 100 nM
C=CC(=O)N1CCC2(CC=C(c3c(-c4ncc(C5CCOC5)cn4)c4c(N)ncnc4n3C)CC2)CC1 (centres unmarked) [Example 52] :: > 100 nM
C=CC(=O)N1CCC2(CC=C(c3c(-c4cnc(OC)c(F)c4)c4c(N)ncnc4n3C)CC2)CC1 [Example 28] :: > 100 nM
C=CC(=O)N1CCC2(CC=C(c3c(C#N)c4c(N)ncnc4n3C)CC2)CC1 [Example 57] :: > 100 nM
C=CC(=O)N1CCC2(CC=C(c3c(-c4cncc(F)c4)c4c(N)ncnc4n3C)CC2)CC1 [Example 27] :: > 100 nM
C=CC(=O)N1CCC2(CC=C(c3c(-c4ccc(OC)nc4)c4c(N)ncnc4n3C)CC2)CC1(C)C (centres unmarked) [Example 40] :: > 100 nM

Now consider a different compound.
Which IC50 value is on record for C=CC(=O)N1CCC2(CC=C(c3c(-c4cccnn4)c4c(N)ncnc4n3C)CC2)CC1 [Example 61] ? > 100 nM

----------
# Test system: KATO III
# Assay Procedure: 2D cell proliferation assay, KATO III
# Format: cell-based
# Assay Context: Homo sapiens, 96 hours, CTG, read-out: Cell Line, IC50 KATO III
Property Label: IC50

As a guide, the following entries are already answered.
C=CC(=O)N1CCC2(CC=C(c3c(-c4ccc(F)cc4)c4c(N)ncnc4n3C)CC2)CC1 [Example 11] :: 30 to 100 nM
C=CC(=O)N1CCC2(CC=C(c3c(-c4ccc(OC5CC5)nc4)c4c(N)ncnc4n3C)CC2)CC1 [Example 22] :: 1 to 10 nM
C=CC(=O)N1CCC2(CC=C(c3c(-c4cccc(F)c4)c4c(N)ncnc4n3C)CC2)CC1 [Example 10] :: 10 to 30 nM
C=CC(=O)N1CCC2(CC=C(c3c(-c4ccc(OC5CCC5)nc4)c4c(N)ncnc4n3C)CC2)CC1 [Example 26] :: 1 to 10 nM

Which IC50 value is on record for C=CC(=O)N1CCC2(CC=C(c3c(-c4ccc(Oc5nccc(C)n5)c(F)c4)c4c(N)ncnc4n3C)CC2)CC1 [Example 62] ? 10 to 30 nM

Which IC50 value is on record for C=CC(=O)N1CCC2(CC=C(c3c(-c4cnccn4)c4c(N)ncnc4n3C)CC2)CC1 [Example 59] ? 30 to 100 nM

Which IC50 value is on record for C=CC(=O)N1CCC2(CC=C(c3c(-c4ncccn4)c4c(N)ncnc4n3C)CC2)CC1 [Example 33] ? 1 to 10 nM

Which IC50 value is on record for C=CC(=O)N1CCC2(CC=C(c3c(-c4ccc(OC)nc4)c4c(N)ncnc4n3C)CC2)CC1C (stereo not drawn) [Example 39] ? 10 to 30 nM

Which IC50 value is on record for C=CC(=O)N1CCC2(CC=C(c3c(-c4cnc(OC5CC5)c(F)c4)c4c(N)ncnc4n3C)CC2)CC1 [Example 23] ? 1 to 10 nM

Which IC50 value is on record for C=CC(=O)N1CCC2(CC=C(c3c(-c4ccc(OC(F)F)cc4)c4c(N)ncnc4n3C)CC2)CC1 [Example 17] ? 1 to 10 nM

Which IC50 value is on record for C=CC(=O)N1CCC2(CC=C(c3c(-c4ccc(OC)cc4)c4c(N)ncnc4n3C)CC2)CC1 [Example 8] ? 1 to 10 nM

Which IC50 value is on record for C=CC(=O)N1CCC2(CC=C(c3c(-c4ncc(C#N)cn4)c4c(N)ncnc4n3C)CC2)CC1 [Example 51] ? 10 to 30 nM

Which IC50 value is on record for C=CC(=O)N1CCC2(CC=C(c3c(-c4ccc(OC5CC5)cc4)c4c(N)ncnc4n3C)CC2)CC1 [Example 18] ? 1 to 10 nM

Which IC50 value is on record for C=CC(=O)N1CCC2(CC=C(c3c(-c4ncc(C(F)F)cn4)c4c(N)ncnc4n3C)CC2)CC1 [Example 56] ? 1 to 10 nM

Which IC50 value is on record for C=CC(=O)N1CCC2(CC=C(c3c(-c4ncc(C(F)(F)F)cn4)c4c(N)ncnc4n3C)CC2)CC1 [Example 42] ? 10 to 30 nM
